Target: progesterone receptor (Homo sapiens)
Construct: Effects of Progestins and Antiprogestins on Alkaline Phosphatase Activity in T47D cells; endogenous in cells
Sequence (P06401 1-933): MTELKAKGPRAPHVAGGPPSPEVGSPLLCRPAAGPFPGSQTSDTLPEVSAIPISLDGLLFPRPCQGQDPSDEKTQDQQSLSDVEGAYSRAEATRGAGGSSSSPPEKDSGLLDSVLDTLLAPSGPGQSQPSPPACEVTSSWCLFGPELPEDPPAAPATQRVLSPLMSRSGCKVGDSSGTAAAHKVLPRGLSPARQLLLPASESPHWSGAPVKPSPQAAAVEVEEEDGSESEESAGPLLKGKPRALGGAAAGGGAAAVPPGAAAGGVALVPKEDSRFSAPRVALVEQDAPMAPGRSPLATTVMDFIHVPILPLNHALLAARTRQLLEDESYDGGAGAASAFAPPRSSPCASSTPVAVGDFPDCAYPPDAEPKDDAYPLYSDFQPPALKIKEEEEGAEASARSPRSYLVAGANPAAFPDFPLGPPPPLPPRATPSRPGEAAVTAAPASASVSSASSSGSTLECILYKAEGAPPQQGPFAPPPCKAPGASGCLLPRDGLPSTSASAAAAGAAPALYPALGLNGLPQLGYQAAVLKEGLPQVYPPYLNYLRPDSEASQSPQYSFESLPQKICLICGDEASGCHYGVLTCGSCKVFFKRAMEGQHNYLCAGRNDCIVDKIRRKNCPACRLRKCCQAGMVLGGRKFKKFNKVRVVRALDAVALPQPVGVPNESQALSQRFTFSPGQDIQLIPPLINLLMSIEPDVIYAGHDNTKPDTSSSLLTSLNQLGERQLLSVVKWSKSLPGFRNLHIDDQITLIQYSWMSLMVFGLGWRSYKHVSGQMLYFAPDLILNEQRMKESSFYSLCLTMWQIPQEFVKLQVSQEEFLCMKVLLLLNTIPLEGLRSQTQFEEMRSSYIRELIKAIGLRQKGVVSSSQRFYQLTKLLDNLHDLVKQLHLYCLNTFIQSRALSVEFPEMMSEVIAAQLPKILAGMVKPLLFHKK
Test: T47D Cell Alkaline Phosphatase Assay
Conditions: antagonist mode, T47D cells, in the presence of 1 nM progesterone, 24 hours
Items are presented alongside their recorded IC50.

| Structure As Smiles | IC50 / nM |
| --- | --- |
| Cn1c(C#N)ccc1-c1ccc2c(c1)C1(CCC1)C(=O)N2 | 1 |
| CC(C)(C)OC(=O)n1c(C#N)ccc1-c1ccc2c(c1)C1(CCCC1)C(=O)N2 | 300 |
| CN1C(=O)C(C)(C)c2cc(-c3ccc(C#N)[nH]3)ccc21 | 72.9 |
| CN1C(=O)C(C)(C)c2cc(-c3ccc(C#N)n3C)ccc21 | 13.3 |
| Cn1c(C#N)ccc1-c1ccc2c(c1)CC(=O)N2 | 20.4 |
| N#Cc1ccc(-c2ccc3c(c2)C2(CCCC2)C(=O)N3)[nH]1 | 60 |

###

Molecular target: progesterone receptor (Homo sapiens, UniProt P06401)
Construct: Effects of Progestins and Antiprogestins on Alkaline Phosphatase Activity in T47D cells; endogenous in cells
Test: T47D Cell Alkaline Phosphatase Assay
Conditions: antagonist mode, T47D cells, in the presence of 1 nM progesterone, 24 hours
Lab note: cut-off is 10 nM. Strictly less in IC50 is 1 (yes). Exactly 10 nM or more is 0 (no).

| Compound | System Name | Label Value |
| --- | --- | --- |
| CC1(C)C(=O)Nc2ccc(-c3ccc(C#N)[nH]3)cc21 | progesterone receptor (Homo sapiens, UniProt P06401) | 0 (no) |
| CC[C@H]1C(=O)Nc2ccc(-c3ccc(C#N)n3C)cc21 (single isomer, unassigned) | progesterone receptor (Homo sapiens, UniProt P06401) | 1 (yes) |
| CCC1C(=O)Nc2ccc(-c3ccc(C#N)n3C)cc21 (racemic) | progesterone receptor (Homo sapiens, UniProt P06401) | 1 (yes) |
| CC[C@@H]1C(=O)Nc2ccc(-c3ccc(C#N)n3C)cc21 (single isomer, unassigned) | progesterone receptor (Homo sapiens, UniProt P06401) | 0 (no) |
| CC[C@@]1(C)C(=O)Nc2ccc(-c3ccc(C#N)n3C)cc21 (single isomer, unassigned) | progesterone receptor (Homo sapiens, UniProt P06401) | 1 (yes) |
| CC[C@]1(C)C(=O)Nc2ccc(-c3ccc(C#N)n3C)cc21 (single isomer, unassigned) | progesterone receptor (Homo sapiens, UniProt P06401) | 1 (yes) |
| CCC1(CC)C(=O)Nc2ccc(-c3ccc(C#N)n3C)cc21 | progesterone receptor (Homo sapiens, UniProt P06401) | 1 (yes) |
| Cn1c(C#N)ccc1-c1ccc2c(c1)C1(CC1)C(=O)N2 | progesterone receptor (Homo sapiens, UniProt P06401) | 1 (yes) |
| Cn1c(C#N)ccc1-c1ccc2c(c1)C1(CCCC1)C(=O)N2 | progesterone receptor (Homo sapiens, UniProt P06401) | 0 (no) |
